These entries and their values trace back to ChEMBL document CHEMBL4513216.

- assay.summary: Toxicity liver stage against HepG2, at 10uM
- Type: cell-based
- Design: test concentration 10 uM, cell line HepG2-A16-CD81EGFP
- conditions.used: human, HepG2-A16-CD81EGFP cells; read-out: INHIBITION
Reported cytotoxicity at 10 µM is given for each of the following compounds.

[
  {
    "compound": "CC1COCCN1Cc1nc(-c2ccc(F)cc2)no1 (configuration not stated)",
    "cytotoxicity at 10 µM (%)": -9.4
  },
  {
    "compound": "CNc1cccc(C2CCN(C(=O)c3cccnc3)CC2)n1",
    "cytotoxicity at 10 µM (%)": -7.27
  },
  {
    "compound": "O=C(c1cc(Cl)cc2cccnc12)N1CCN(CCO)CC1",
    "cytotoxicity at 10 µM (%)": -2.07
  },
  {
    "compound": "Cc1ccc(C)c2c(O)cc(CN[C@H]3CCCCNC3=O)nc12",
    "cytotoxicity at 10 µM (%)": 5.63
  },
  {
    "compound": "Cc1nn(C(C)C)c(C)c1NC(=O)Nc1cccnc1N1CCCC1",
    "cytotoxicity at 10 µM (%)": -5.79
  },
  {
    "compound": "COCC(=O)NC(C)c1sc(-c2ccccc2F)nc1C (configuration not stated)",
    "cytotoxicity at 10 µM (%)": 5.41
  },
  {
    "compound": "Cc1nc(C(=O)N(C)CC(=O)N(C)C)nn1-c1ccccc1C(C)C",
    "cytotoxicity at 10 µM (%)": -6.5
  },
  {
    "compound": "COC(C)(C)CC(C)NCc1cn2ccccc2n1 (configuration not stated)",
    "cytotoxicity at 10 µM (%)": -3.48
  },
  {
    "compound": "O=C([C@H]1CC[C@@H]2[C@@H](CCN2c2ncccn2)O1)N1CCCCO1",
    "cytotoxicity at 10 µM (%)": 6.46
  },
  {
    "compound": "CCC(CC)c1cc(CNC(=O)N2CCOCC2CC)on1 (configuration not stated)",
    "cytotoxicity at 10 µM (%)": -5.59
  },
  {
    "compound": "CCc1ocnc1C(=O)N1CCC(n2cc(-c3ccsc3)nn2)CC1",
    "cytotoxicity at 10 µM (%)": 1.47
  },
  {
    "compound": "CC(=O)N1[C@H](CN(C)C)C[C@@H]2CN(C(=O)c3cccc(F)c3)CC[C@@H]21",
    "cytotoxicity at 10 µM (%)": 5.85
  },
  {
    "compound": "CCC(C)NS(=O)(=O)Cc1cccc(NC(=O)C(C)C)c1 (configuration not stated)",
    "cytotoxicity at 10 µM (%)": 5.36
  },
  {
    "compound": "Cc1cc(NCc2cc(C)oc2C(F)(F)F)n2nc(C)cc2n1",
    "cytotoxicity at 10 µM (%)": 49.1
  },
  {
    "compound": "Cc1ccn2cc(C(=O)N3CCCC(Cn4cc(CO)nn4)C3)nc2c1 (configuration not stated)",
    "cytotoxicity at 10 µM (%)": 2.41
  },
  {
    "compound": "Cc1[nH]c2c(C)cccc2c1CC(=O)N(C)CCN(C)C",
    "cytotoxicity at 10 µM (%)": 1.14
  },
  {
    "compound": "CCOC(=O)N1CC2(CCNCC2)c2cc(Cl)ccc21",
    "cytotoxicity at 10 µM (%)": -0.449
  },
  {
    "compound": "CCOc1cc(C)nc(N2CCN(C(=O)c3cscn3)CC2)n1",
    "cytotoxicity at 10 µM (%)": -7.54
  },
  {
    "compound": "Cn1nc(Cn2cccn2)c2c1CN(C1CCOC1)C2 (configuration not stated)",
    "cytotoxicity at 10 µM (%)": 6.92
  },
  {
    "compound": "c1ccc(CN2CCC(NCCSc3cnn[nH]3)CC2)cc1",
    "cytotoxicity at 10 µM (%)": -5.16
  },
  {
    "compound": "O=C(NC[C@H]1OC[C@@H](NCc2ccccn2)[C@@H]1O)c1ccc(F)cc1",
    "cytotoxicity at 10 µM (%)": -2.65
  },
  {
    "compound": "Cc1cc(C(=O)N2CC[C@H](N3CCOCC3)[C@H](CCCO)C2)c(C)n1C",
    "cytotoxicity at 10 µM (%)": -138
  },
  {
    "compound": "Cc1nc(C2CCCN2CCCS(N)(=O)=O)no1 (configuration not stated)",
    "cytotoxicity at 10 µM (%)": -10.3
  },
  {
    "compound": "O=C(C1CCCCC1)N1CCC2(COc3ncccc3S(=O)(=O)N2)C1 (configuration not stated)",
    "cytotoxicity at 10 µM (%)": 11.3
  },
  {
    "compound": "Cc1nc(S(=O)(=O)N2CCC3(CCCCC3)C2)cn1C",
    "cytotoxicity at 10 µM (%)": -4.2
  },
  {
    "compound": "Cc1nc(CN2CCCC(N(C)Cc3nnc(C4CC4)o3)C2)no1 (configuration not stated)",
    "cytotoxicity at 10 µM (%)": -24.2
  },
  {
    "compound": "O=C(NCCCNC(=O)c1ccc(F)cc1F)c1cccc(O)c1",
    "cytotoxicity at 10 µM (%)": 2.9
  },
  {
    "compound": "CN1CCC(CO[C@H]2CN(C(=O)c3cccn3C)[C@@H]3COC[C@H]23)CC1",
    "cytotoxicity at 10 µM (%)": -109
  },
  {
    "compound": "Cc1ccc2c(n1)N(CCn1cccn1)CCN(S(C)(=O)=O)C2",
    "cytotoxicity at 10 µM (%)": 13.5
  },
  {
    "compound": "CCN(CC)C(=O)N1CCOCC1c1c(C)nn(C)c1C (configuration not stated)",
    "cytotoxicity at 10 µM (%)": 11.3
  },
  {
    "compound": "c1coc(CN2CCO[C@H]3[C@@H](OCC4CC4)CC[C@@H]32)c1",
    "cytotoxicity at 10 µM (%)": 6.68
  },
  {
    "compound": "CSc1ccccc1CN1C[C@@H]2CC[C@H]1CN(Cc1[nH]cnc1C)C2",
    "cytotoxicity at 10 µM (%)": -8.96
  },
  {
    "compound": "CCC(C(=O)NCc1nc(C)cc(C(F)(F)F)n1)n1cccn1 (configuration not stated)",
    "cytotoxicity at 10 µM (%)": -17.1
  },
  {
    "compound": "Cc1ccccc1C(=O)N1CC[C@@H]2CN(c3ncccn3)CCO[C@@H]2C1",
    "cytotoxicity at 10 µM (%)": -72.4
  },
  {
    "compound": "Cc1cccc(CN2CC[C@H]3C[C@@H](C)O[C@@H]3C2)n1",
    "cytotoxicity at 10 µM (%)": -65.5
  },
  {
    "compound": "CC(C)Cc1ncc2c(n1)CN(c1nccc(N(C)C)n1)C2",
    "cytotoxicity at 10 µM (%)": -6.1
  },
  {
    "compound": "O=C(c1ccc(-c2ccc(O)nc2)s1)N1CCSCC1",
    "cytotoxicity at 10 µM (%)": 3.96
  },
  {
    "compound": "CC(C)C(C(=O)N1CCC(N(C)c2cccnn2)CC1)n1cncn1 (configuration not stated)",
    "cytotoxicity at 10 µM (%)": -7.44
  },
  {
    "compound": "CC(=O)N1CCN(c2cc(C3CCNCC3)ccn2)CC1",
    "cytotoxicity at 10 µM (%)": 6.91
  },
  {
    "compound": "COCCN1C(=O)C2(CCC(C(=O)Nc3ccc(C)cc3)CC2)N=C1C (configuration not stated)",
    "cytotoxicity at 10 µM (%)": 12.3
  },
  {
    "compound": "Cc1cc(CN2CCC(c3cc(Cc4ccccc4)n[nH]3)CC2)[nH]n1",
    "cytotoxicity at 10 µM (%)": 7.54
  },
  {
    "compound": "OC(CNCc1nnc2ccccn12)c1ccc2c(c1)OCO2 (configuration not stated)",
    "cytotoxicity at 10 µM (%)": 5.79
  },
  {
    "compound": "Cc1noc(C)c1CN(Cc1cccs1)C1CCS(=O)(=O)C1 (configuration not stated)",
    "cytotoxicity at 10 µM (%)": -0.375
  },
  {
    "compound": "CC(C)N(C)S(=O)(=O)N1CCCC1C(=O)N1CCSCC1 (configuration not stated)",
    "cytotoxicity at 10 µM (%)": -16.5
  },
  {
    "compound": "CCC(CC)(CNC(C)=O)NC(C)c1ccccc1 (configuration not stated)",
    "cytotoxicity at 10 µM (%)": 4.99
  },
  {
    "compound": "CC(C)N(CC(=O)Nc1cccc(C#N)c1)C1CC1",
    "cytotoxicity at 10 µM (%)": -7.16
  },
  {
    "compound": "COCC(=O)N1CCC(Oc2cccc(C)c2)CC1",
    "cytotoxicity at 10 µM (%)": -4.25
  }
]
